Experiment: soluble on expression in E. coli; label from the status in PepcDB or PDB records
readout.name: soluble on expression in E. coli

Illustrative cases are given below, each with its answer.
{"columns": ["sequence.entry", "soluble on expression in E. coli"],
 "data": [
  ["MGHHHHHHSHMVAWKRQLILFGGFHESTRDYIYYNDVYAFNLDTFTWSKLSPSGTGPTPRSGCQMSVTPQGGIVVYGGYSKQRVKKDVDKGTRHSDMFLLKPEDGREDKWVWTRMNPSGVKPTPRSGFSVAMAPNHQTLFFGGVCDEEEEESLSGEFFNDLYFYDATRNRWFEGQLKKLRSGWRRRTRKRTVRRLRAPRVGSTTKTAERRAVRRTESPCQGRLASAVPTSAQDPAVLSEALGASVRPDAQERAEGGWPRPGCELSPMV", "not soluble"],
  ["MAHHHHHHMPVPVLLDNYAYFILSCKTKRCAVVDPADPTLVLNMLEVVRNLTQIDFMITDILTTHKHWDHAGGNMEMRALSQCSSERCRALLSPELNIYGSEVDRPHACNKLIKGSDELVVAGGGAKVVVLSTPGHTGGSVMFLVGDALPKEGEPQRLALFTGDCVFCGGCGALFEATSVDETLETVDIFNNNRTWVHPATGDIIHTDDVLIYVGHEYTERSLDMILSVQRTANQTGEQSAIATSNYCDTVAQARNGARRLRSCVVADDVYMKVTSMETKAPLHLRACTVPSTVTIEKKVNALLSLKRCVLEEFQGKPYASMAVQRAIYTSTKRNDTG", "not soluble"],
  ["MGSDKIHHHHHHMELKKLMEHISIIPDYRQTWKVEHKLSDILLLTICAVISGAEGWEDIEDFGETHLDFLKQYGDFENGIPVHDTIARVVSCISPAKFHECFINWMRDCHSSDDKDVIAIDGKTLRHSYDKSRRRGAIHVISAFSTMHSLVIGQIKTDEKSNEITAIPELLNMLDIKGKIITTDAMGCQKDIAEKIQKQGGDYLFAVKGTQGRLNKAFEEKFPLKELNNPEHDSYAISEKSHGREEIRLHIVCDVPDELIDFTFEWKGLKKLCVAVSFRSIIAEQKKEPEMTVRYYISSADLTAEKFATAIRNHWHVENKLHWRLDVVMNEDDCKIRRGNAAELFSGIRHIAINILTNDKVFKAGLRRKMRKAAMDRNYLASVLAGSGLS", "not soluble"],
  ["MEQDINNQTGKKIFLNEECFLELDKLPQHVSVLGVSGFGKSNILLHFLKYAIDNDHPLIFVNGKGDKELITQFEHYQTSAKQLSPEDGFDTVKLVALKNTSAKIWSLDDRIATIKYNPFK", "soluble"],
  ["MSLKIFDAHCDVLLQLWSAQGRKDFKHDSQLHITFEQLKRRKGSIQCFAIYVPETVAYENRFEVALQMVDIFYNEILSLPGVKFIQTKDDINMLKQDEIGAILTLEGCEAIGKDAMKIRLLYRLGVRSFGLTWNYANLLADGALETRGAGLTTSGKHVVQELNALHVWTDVSHLNERSFWDVIEIAKNPIASHSNCMKLCQHPRNLNDEQLKALIKRNGMIGVTFVPQFLTNEKQANVADIIRHIEYICSLGGENNIGFGSDFDGILETVVNVSAYRDYENVVNELCKHYAASTVERFLYDNFVEHISEGHHHHHH", "not soluble"],
  ["MAHHHHHHMNTLGSSGSAGAEAPLVGGPDALTLQTINEQQLIILRQKELVSTLKECVEELGAQLRRAGVKPLEAAQKEDGCKGTLSYVSEMQLRRRVRTLEDENKKLSDLVDELRAEVSAISAQLCAQQLHTQSEKDVWKAKVSSAEAKSVATAHLLEATGKRNQQLVHHLETLRREGEVSAYECTQWRSLATTAVSHLDHANQRYARAQINSIEEDVHRYAVNRLRLVRVAASASLSLDSGTPEETRKIWSRSAQLPKLHPAPQVFQQQQQEPVCSPLHVSYKRPLSQLLPCQPPQPTTSYSLPPPTAEHVNAETHLSPSHCAALAQT", "not soluble"],
  ["MNDKIQKLIKKLAKECQKEDVALSLAAIDLEGEMAISQVGKGTIVAIAAHSQYTLTKEKLEQSDCDCPKHRLLKEMYGTETETTTKNTHTFVTDDPNDLMDILSKIFRGEFK", "not soluble"],
  ["MPKIRIKLRGFDHKTLDASAQKIVEAARRSGAQVSGPIPLPTRVRRFTVIRGPFKHKDSREHFELRTHNRLVDIINPNRKTIEQLMTLDLPTGVEIEIKTVGGGR", "soluble"]
]}

Exam item: State the recorded soluble on expression in E. coli for this entry: GSLHRVPLRRHPSLKKKLRARSQLSEFWKSHNLDM
Marked response: soluble

====

Test: soluble on expression in E. coli; label from the status in PepcDB or PDB records
readout.name: soluble on expression in E. coli

{"columns": ["sequence.entry", "readout.name", "result"],
 "data": [
  ["MPEPRCTAIVNFLNLSHSILISIFSVSVMSNYHHNHNYQHRPRGYERLPGKRLPDRWNIYDNVGRDIDGTRFVPFKTPLDSSFFDGKNMPVELQFGVKTLISLAQQANKQIGLVIDLTNTDRYYKKTEWADHGVKYLKLNCPGHEVNEREDLVQDFINAVKEFVNDKENDGKLIGVHCTHGLNRTGYLICRYMIDVDNYSASDAISMFEYYRGHPMEREHYKKSLYEAERKKKYGKSSGKSSGNSADSTISSEQLHRNNSQ", "soluble on expression in E. coli", "not soluble"],
  ["MSLIHEISENEKPREKLQNYGIEALSSSELVALIIETGTKNESVLTIANRIIMKFKNVGEMQYASIEEFQLVNGIGIAKASKIMAAIELGRRIGIVTEQEEVVVRCPEDAVKLVMPELAFLFQEHFHCLFLNTKNQVIYRQTIFVGGLNASIVHPREVFRLALRKSAASIMCFHNHPSGDPTPSSEDLLVTKRLAEAGNIVGITLLDHIIIGKNKYISLKEKGYFEGHHHHHH", "soluble on expression in E. coli", "not soluble"]
]}

====

Experiment: soluble on expression in E. coli; label from the status in PepcDB or PDB records
readout.name: soluble on expression in E. coli

{"columns": ["sequence.entry", "result"],
 "data": [
  ["MADSKAKPAKAANKTPPKSPGDPARAAKRLSLESEGANEGATAAPELSALEEAFRRFAVHGDTRATGKEMHGKNWSKLCKDCHVIDGKNVTVTDVDIVFSKIKGKSCRTITFEQFQEALEELAKKRFKDKSSEEAVREVHRLIEGRAPVISGVTKAVSSPTVSRLTDTSKFTGSHKERFDQSGKGKGKAGRVDLVDESGYVPGYKHAGTYDQKVQGGK", "soluble"],
  ["LRSSSQNSSDKPVAHVVANHQVEEQLEWLSQRANALLANGMDLKDNQLVVPADGLYLVYSQVLFKGQGCPDYVLLTHTVSRFAISYQEKVNLLSAVKSPCPKDTPEGAELKPWYEPIYLGGVFQLEKGDQLSAEVNLPKYLDFAESGQVYFGVIAL", "soluble"],
  ["MKKILIVDDEKPISDIIKFNMTKEGYEVVTAFNGREALEQFEAEQPDIIILDLMLPEIDGLEVAKTIRKTSSVPILMLSAKDSEFDKVIGLELGADDYVTKPFSNRELQARVKALLRRSQ", "soluble"]
]}

====

Experiment: soluble on expression in E. coli; label from the status in PepcDB or PDB records
readout.name: soluble on expression in E. coli

{"columns": ["sequence.entry", "result"],
 "data": [
  ["MMSKQPTSKRQWRDGAAPSAKKTAKPFKSKARPKDETGKTASQPYGQKASDGIKPQNVPKQRAAKAKKLVVRNPNQKIMEHARDLKERRSDLSRMEPERLQKVLAASGVGSRREMEEWITNGWITVNGKTAQLGDKVTPDDHVTVKGSIIKLKWADRLPRIILYYKQEGEIVSRDDPQGRVSIFDRLPQAASSRWVAIGRLDINTSGLLILTTSGELVQRFAHPSFEVEREYAVRVLGGLTGEQMRVLTEEGVMLEDGLAKVERIREQGGEGANKWYNVVIKEGRNREVRRIFESQGLTVSRLVRIGFGPIGLPNRLKRGQFYELNPAEVANIIKWADMLLPGERRRKKA", "not soluble"],
  ["MMVDTGVDHRAVSSHDGPDAGRRVFGAADPRFACVVRAFASMFPGRRFGGGALAVYLDGQPVVDVWKGWADRAGWVPWSADSAPMVFSATKGMTATVIHRLADRGLIDYEAPVAEYWPAFGANGKATLTVRDVMRHQAGLSGLRGATQQDLLDHVVMEERLAAAVPGRLLGKSAYHALTFGWLMSGLARAVTGKDMRLLFREELAEPLDTDGLHLGRPPADAPTRVAEIIMPQDIAANAVLTCAMRRLAHRFSGGFRSMYFPGAIAAVQGEAPLLDAEIPAANGVATARALARMYGAIANGGEIDGIRFLSRELVTGLTRNRRQVLPDRNLLVPLNFHLGYHGMPIGNVMPGFGHVGLGGSIGWTDPETGVAFALVHNRLLSPLEHHHHHH", "not soluble"]
]}

// data source = the DeepSol protein solubility set
